# TARGET_UNDER_TEST: T1, human FSTL1 (construct not stated) (human, UniProt Q12841 21-308)
# T1 construct: also called human FSTL1 antigen; FSTL1 (R&D Systems, Inc. Cat#1694-FN-050)
# T1 sequence: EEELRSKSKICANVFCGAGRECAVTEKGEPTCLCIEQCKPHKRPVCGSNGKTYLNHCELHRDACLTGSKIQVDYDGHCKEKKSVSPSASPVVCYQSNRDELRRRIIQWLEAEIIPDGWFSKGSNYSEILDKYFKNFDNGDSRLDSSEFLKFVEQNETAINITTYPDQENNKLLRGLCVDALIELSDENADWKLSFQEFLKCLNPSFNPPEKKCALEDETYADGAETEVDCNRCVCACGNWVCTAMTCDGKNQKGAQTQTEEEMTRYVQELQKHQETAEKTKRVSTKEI
# ASSAY_EXPLANATION: SPR (Biacore T-200), captured antibody, human FSTL1 10 µg/ml; note: time not given here
OBSERVED_PROPERTY: Dissociation amount (RU)

{"BINDER": "anti-FSTL1 antibody clone #5-2 (chicken-mouse chimeric antibody) (antibody, mouse IgG1, kappa, V domains shown) VH: AVTLDESGGGLQTPGGGLSLVCKGSGFTFSSFNMFWVRQAPGKGLEWVAGVGKDGGTGYGAAVDGRATISKDNGQSTLRLQLNNLRAEDTGTYYCAKAAGGCSYGWCGSYVGDIDAWGHGTEVIVSS VL: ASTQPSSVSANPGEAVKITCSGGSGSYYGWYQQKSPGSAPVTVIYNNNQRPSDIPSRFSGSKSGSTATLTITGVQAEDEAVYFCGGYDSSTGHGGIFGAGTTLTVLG", "RESULT": "7.1 RU"}
{"BINDER": "anti-FSTL1 antibody clone #5-10 (chicken-mouse chimeric antibody) (antibody, mouse IgG1, V domains shown) VH: AVTLDESGGGLQTPGGGLSLVCKGSGFTLSSFNMFWVRQAPGKGLEWVAGVGKDGGTTYGAAVDGRATISRDSGQSTVRLQLNDLRAEDTGTYFCAKAAGGCSYSWCGAYVGDLDAWGHGTEVIVSS VL: ASTQPSSVSANPGETVKITCSGGGSYVGSYYYGWYQQKSPGSAPVTVIYNNNQRPSDIPSRFSGSKSGSTATLTITGVQAEDEAVYFCGGYDSSAGGIFGAGTTLTVLG", "RESULT": "12.1 RU"}
{"BINDER": "anti-FSTL1 antibody clone #5-43 (chicken-mouse chimeric antibody) (antibody, mouse IgG1, kappa, V domains shown) VH: AVTLDESGGGLQTPGGGLSLVCKGSGFTFSSFNMFWVRQAPGKGLEWVAGIGKDGGTGYGAAVDGRATISKDSGQSTLRLQLNNLRAEDTGTYYCAKAAGGCSYDWCGAYTGDIDTWGHGTEVIVSS VL: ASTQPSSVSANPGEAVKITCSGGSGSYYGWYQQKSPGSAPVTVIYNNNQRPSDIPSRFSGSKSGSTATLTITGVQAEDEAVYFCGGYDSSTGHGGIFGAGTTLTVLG", "RESULT": "3.1 RU"}
{"BINDER": "anti-FSTL1 antibody clone #6-55 (chicken-mouse chimeric antibody) (antibody, mouse IgG1, kappa, V domains shown, also called Anti-FSTL1 mAb (#6-55)) VH: AVTLDESGGGLQTPGGALSLVCKGSGFTFTSVTMQWVRQAPGKGLEWVASVCSGSSTYYAPAVKGRATISRDNGQSTVRLQLSNLRPEDTGTYYCAKIAGRARWSCTSAAYNIDAWGHGTEVIVSS VL: ASTQPSSVSAIPGETVKITCSGGGNNYGWYQQRSPGSAPVTVIYYNDNRPSNIPSRFSGSTSGSTSTLTITGVQADDEAIYYCGSWDSNTDSGIFGAGTTLTVLG", "RESULT": "1.5 RU"}

Data origin, for the record: patent US20180021429A1
